# Assay system: interaction between p53 and MDM2 proteins (recombinant GST-tagged MDM2) (Homo sapiens)
# Sequence (Q00987 whole entry): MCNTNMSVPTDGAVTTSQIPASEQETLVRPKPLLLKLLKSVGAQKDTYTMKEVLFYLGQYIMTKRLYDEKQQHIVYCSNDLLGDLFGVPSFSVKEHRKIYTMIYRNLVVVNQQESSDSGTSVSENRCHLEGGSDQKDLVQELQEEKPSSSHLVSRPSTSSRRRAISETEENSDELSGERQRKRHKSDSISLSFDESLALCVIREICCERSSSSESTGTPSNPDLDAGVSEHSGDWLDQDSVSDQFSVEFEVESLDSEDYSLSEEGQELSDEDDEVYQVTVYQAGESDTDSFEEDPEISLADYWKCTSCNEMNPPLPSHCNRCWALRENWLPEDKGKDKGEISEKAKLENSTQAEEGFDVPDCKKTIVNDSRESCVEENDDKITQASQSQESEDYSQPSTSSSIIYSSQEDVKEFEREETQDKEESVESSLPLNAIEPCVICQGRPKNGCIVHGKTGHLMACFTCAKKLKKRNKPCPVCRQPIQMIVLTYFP
# Experiment summary: HTRF assay of inhibition of the p53-MDM2 interaction (GST-MDM2 / biotinylated p53 peptide);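 also: FRET read-out from Eu-labelled anti-GST antibody to streptavidin-APC, with 90 nM N-terminally biotinylated p53 peptide and 160 ng/ml GST-MDM2 in Tris-borate saline containing 1 mM DTT, 384-well format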
# Type: binding
# Conditions used: HTRF, 0.02% BSA, 37° C. 1 h
Counter-ions that a name gives are not always drawn.
# if measured IC50 < 10 nM: True  # else: False

[ask] For COc1cc(C(=O)OCC2COC(C)(C)O2)ccc1NC(=O)[C@@H]1N[C@@H](CC(C)(C)C)[C@](C#N)(c2ccc(Cl)cc2F)[C@H]1c1cccc(Cl)c1F (stereo partly shown) , is the recorded IC50 below the cut-off of 10 nM?
[reply] True

[ask] For COc1cc(C(=O)OCC(C)N2CCOCC2)ccc1NC(=O)[C@@H]1N[C@@H](CC(C)(C)C)[C@](C#N)(c2ccc(Cl)cc2F)[C@H]1c1cccc(Cl)c1F (stereo partly shown) [Example 25, hydrochloride] , is the recorded IC50 below the cut-off of 10 nM?
[reply] False

[ask] For `COc1cc(C(=O)NCCOCCOCCOCCNC(=O)c2ccc(NC(=O)[C@@H]3N[C@@H](CC(C)(C)C)[C@](C#N)(c4ccc(Cl)cc4F)[C@H]3c3cccc(Cl)c3F)c(OC)c2)ccc1NC(=O)[C@@H]1N[C@@H](CC(C)(C)C)[C@](C#N)(c2ccc(Cl)cc2F)[C@H]1c1cccc(Cl)c1F` , is the recorded IC50 below the cut-off of 10 nM?
[reply] False

[ask] For COc1cc(C(=O)OCC(=O)N(C)C)ccc1NC(=O)[C@@H]1N[C@@H](CC(C)(C)C)[C@](C#N)(c2ccc(Cl)cc2F)[C@H]1c1cccc(Cl)c1F [Example 24, hydrochloride] , is the recorded IC50 below the cut-off of 10 nM?
[reply] False

[ask] For `COc1cc(C(=O)O[C@@H]2O[C@H](C(=O)O)[C@@H](O)[C@H](O)[C@H]2O)ccc1NC(=O)[C@@H]1N[C@@H](CC(C)(C)C)[C@](C#N)(c2ccc(Cl)cc2F)[C@H]1c1cccc(Cl)c1F` , is the recorded IC50 below the cut-off of 10 nM?
[reply] True

[ask] For `COc1cc(C(=O)OCCN2CCOCC2)ccc1NC(=O)[C@@H]1N[C@@H](CC(C)(C)C)[C@](C#N)(c2ccc(Cl)cc2F)[C@H]1c1cccc(Cl)c1F` , is the recorded IC50 below the cut-off of 10 nM?
[reply] False

[ask] For COc1cc(C(=O)OCCOP(=O)(O)O)ccc1NC(=O)[C@@H]1N[C@@H](CC(C)(C)C)[C@](C#N)(c2ccc(Cl)cc2F)[C@H]1c1cccc(Cl)c1F [Example 13, trifluoroacetate salt] , is the recorded IC50 below the cut-off of 10 nM?
[reply] True

[ask] For `COc1cc(C(=O)OCCOC(=O)CN)ccc1NC(=O)[C@@H]1N[C@@H](CC(C)(C)C)[C@](C#N)(c2ccc(Cl)cc2F)[C@H]1c1cccc(Cl)c1F` , is the recorded IC50 below the cut-off of 10 nM?
[reply] False

[ask] For COc1cc(C(=O)OCCOCCOCCO)ccc1NC(=O)[C@@H]1N[C@@H](CC(C)(C)C)[C@](C#N)(c2ccc(Cl)cc2F)[C@H]1c1cccc(Cl)c1F [Example 47, hydrochloride] , is the recorded IC50 below the cut-off of 10 nM?
[reply] True

[ask] For `COc1cc(C(=O)OCCN2CCN(CCO)CC2)ccc1NC(=O)[C@@H]1N[C@@H](CC(C)(C)C)[C@](C#N)(c2ccc(Cl)cc2F)[C@H]1c1cccc(Cl)c1F` , is the recorded IC50 below the cut-off of 10 nM?
[reply] False

[ask] For `COC(=O)COC(=O)c1ccc(NC(=O)[C@@H]2N[C@@H](CC(C)(C)C)[C@](C#N)(c3ccc(Cl)cc3F)[C@H]2c2cccc(Cl)c2F)c(OC)c1` , is the recorded IC50 below the cut-off of 10 nM?
[reply] False

[ask] For `COc1cc(C(=O)OCCOP(=O)(OC(C)(C)C)OC(C)(C)C)ccc1NC(=O)[C@@H]1N[C@@H](CC(C)(C)C)[C@](C#N)(c2ccc(Cl)cc2F)[C@H]1c1cccc(Cl)c1F` , is the recorded IC50 below the cut-off of 10 nM?
[reply] True

[ask] For `COc1cc(C(=O)OC[C@H](O)[C@@H](O)[C@H](O)[C@H](O)CO)ccc1NC(=O)[C@@H]1N[C@@H](CC(C)(C)C)[C@](C#N)(c2ccc(Cl)cc2F)[C@H]1c1cccc(Cl)c1F` , is the recorded IC50 below the cut-off of 10 nM?
[reply] True

[ask] For `COc1cc(C(=O)OCCN2CCN(CCOC(=O)c3ccc(NC(=O)[C@@H]4N[C@@H](CC(C)(C)C)[C@](C#N)(c5ccc(Cl)cc5F)[C@H]4c4cccc(Cl)c4F)c(OC)c3)CC2)ccc1NC(=O)[C@@H]1N[C@@H](CC(C)(C)C)[C@](C#N)(c2ccc(Cl)cc2F)[C@H]1c1cccc(Cl)c1F` , is the recorded IC50 below the cut-off of 10 nM?
[reply] False

[ask] For `COc1cc(C(=O)OCCOC(=O)[C@@H](NC(=O)[C@H](C)N(C)C(=O)OC(C)(C)C)C(C)C)ccc1NC(=O)[C@@H]1N[C@@H](CC(C)(C)C)[C@](C#N)(c2ccc(Cl)cc2F)[C@H]1c1cccc(Cl)c1F` , is the recorded IC50 below the cut-off of 10 nM?
[reply] False

[ask] For COCCOCCOCCOC(=O)c1ccc(NC(=O)[C@@H]2N[C@@H](CC(C)(C)C)[C@](C#N)(c3ccc(Cl)cc3F)[C@H]2c2cccc(Cl)c2F)c(OC)c1 [Example 48, hydrochloride] , is the recorded IC50 below the cut-off of 10 nM?
[reply] False

[ask] For `COc1cc(C(=O)OCCI)ccc1NC(=O)[C@@H]1N[C@@H](CC(C)(C)C)[C@](C#N)(c2ccc(Cl)cc2F)[C@H]1c1cccc(Cl)c1F` , is the recorded IC50 below the cut-off of 10 nM?
[reply] False

[ask] For `COc1cc(C(=O)OCC(N)=O)ccc1NC(=O)[C@@H]1N[C@@H](CC(C)(C)C)[C@](C#N)(c2ccc(Cl)cc2F)[C@H]1c1cccc(Cl)c1F` , is the recorded IC50 below the cut-off of 10 nM?
[reply] False
